These data points were gathered from patent US6296785A.

# key: entry, value: Sensitivity ΔOD/MIN (Band B)
experiment-notes: photochromic response of test squares on an optical bench (sensitivity, saturation optical density, bleach rate)
Type: physicochemical
measurement-context: Band B; first five (5) seconds of UV exposure, expressed per minute; 72° F. (22.2° C.); polymer test square

Previously resolved entries follow.
[
  {
    "compound": "CCC1(O)c2cc(OC)c(OC)cc2-c2c1c1c(c3ccccc23)OC(c2ccc(OC)cc2)(c2ccc(OC)cc2)C=C1 (stereo not drawn) [Comp. Ex. 3, reference compound]",
    "Sensitivity ΔOD/MIN (Band B)": "0.48 ΔOD/MIN"
  },
  {
    "compound": "COc1ccc(C2(c3ccc(N4CCOCC4)cc3)C=Cc3c4c(c5cc(OC)c(OC)cc5c3O2)-c2ccccc2C4(C)OC)cc1 (stereo not drawn) [Example 20]",
    "Sensitivity ΔOD/MIN (Band B)": "0.17 ΔOD/MIN"
  },
  {
    "compound": "COc1ccc(C2(c3ccc(N4CCOCC4)cc3)C=Cc3c4c(c5cc(OC)c(OC)cc5c3O2)-c2ccccc2C4(C)O)cc1 (stereo not drawn) [Example 19]",
    "Sensitivity ΔOD/MIN (Band B)": "0.22 ΔOD/MIN"
  },
  {
    "compound": "COc1ccc(C2(c3ccc(N(C)C)cc3)C=Cc3c4c(c5cc(OC)c(OC)cc5c3O2)-c2ccccc2C4(C)C)cc1 (stereo not drawn) [Example 10]",
    "Sensitivity ΔOD/MIN (Band B)": "0.28 ΔOD/MIN"
  },
  {
    "compound": "CCC1(O)c2ccccc2-c2c1c1c(c3cc(OC)c(OC)cc23)OC(c2ccc(OC)cc2)(c2ccc(N3CCOCC3)cc2)C=C1 (stereo not drawn) [Example 17]",
    "Sensitivity ΔOD/MIN (Band B)": "0.18 ΔOD/MIN"
  }
]

compound COc1ccc(C2(c3ccc(N4CCOCC4)cc3)C=Cc3c4c(c5cc(OC)c(OC)cc5c3O2)-c2ccccc2C4(C)C)cc1 (stereo not drawn) [Example 9] , Sensitivity ΔOD/MIN (Band B) observed: 0.23 ΔOD/MIN

----------
The compounds listed here are annotated with their Sensitivity ΔOD/MIN (Band A).
experiment-notes: photochromic response of test squares on an optical bench (sensitivity, saturation optical density, bleach rate)
Format: physicochemical
measurement-context: Band A; first five (5) seconds of UV exposure, expressed per minute; 72° F. (22.2° C.); polymer test square

A selection of reference data follows.
[
  {
    "compound": "COc1ccc(C2(c3ccc(OC)cc3)C=Cc3c4c(c5cc(OC)c(OC)cc5c3O2)-c2ccccc2C4(C)C)cc1",
    "Sensitivity ΔOD/MIN (Band A)": "0.39 ΔOD/MIN"
  },
  {
    "compound": "COc1ccc(C2(c3ccc(OC)cc3)C=Cc3c4c(c5c(OC)c(OC)c(OC)cc5c3O2)-c2ccccc2C4c2ccccc2)cc1 (stereo not shown)",
    "Sensitivity ΔOD/MIN (Band A)": "0.28 ΔOD/MIN"
  },
  {
    "compound": "COc1ccc(C2(c3ccc(N(C)C)cc3)C=Cc3c4c(c5cc(OC)c(OC)cc5c3O2)-c2ccccc2C4(C)C)cc1 (stereo not shown)",
    "Sensitivity ΔOD/MIN (Band A)": "0.20 ΔOD/MIN"
  }
]

Consider now this further compound.
The recorded Sensitivity ΔOD/MIN (Band A) for COc1ccc(C2(c3ccc(N4CCOCC4)cc3)C=Cc3c4c(c5cc(OC)c(OC)cc5c3O2)-c2ccccc2C4c2ccccc2)cc1 (stereo not shown) is 0.14 ΔOD/MIN

----------
experiment-notes: lambda max (Vis) of activated photochromic test squares in a Varian Cary 3 uv-visible spectrophotometer
Type: physicochemical
measurement-context: Band A; activated form in test square
observable: λ MAX Vis (Band A) (nm)
Your answer should be a plain number; it is taken to be in nm.

Consider the following illustrative entries.
[
  {
    "molecule": "CCC1(O)c2ccccc2-c2c1c1c(c3cc(OC)c(OC)cc23)OC(c2ccc(OC)cc2)(c2ccc(OC)cc2)C=C1 (stereo not drawn)",
    "λ MAX Vis (Band A) (nm)": 458
  },
  {
    "molecule": "CCC1(OC)c2ccccc2-c2c1c1c(c3cc(OC)c(OC)cc23)OC(c2ccc(OC)cc2)(c2ccc(N3CCOCC3)cc2)C=C1 (stereo not drawn)",
    "λ MAX Vis (Band A) (nm)": 483
  }
]

molecule `CCC1(CC)c2cc(OC)c(OC)cc2-c2c1c1c(c3cc(OC)c(OC)cc23)OC(c2ccc(OC)cc2)(c2ccc(OC)cc2)C=C1` , λ MAX Vis (Band A) observed: 440

----------
experiment-notes: photochromic response of test squares on an optical bench (sensitivity, saturation optical density, bleach rate)
Assay type: physicochemical
measurement-context: Band A; first five (5) seconds of UV exposure, expressed per minute; 72° F. (22.2° C.); polymer test square
observable: Sensitivity ΔOD/MIN (Band A)

Worked set:
[
  {
    "molecule": "COc1ccc(C2(c3ccc(N4CCOCC4)cc3)C=Cc3c4c(c5cc(OC)c(OC)cc5c3O2)-c2ccccc2C4(C)OC)cc1 (stereo not drawn)",
    "Sensitivity ΔOD/MIN (Band A)": "0.16 ΔOD/MIN"
  },
  {
    "molecule": "CCC1(O)c2ccccc2-c2c1c1c(c3cc(OC)c(OC)cc23)OC(c2ccccc2)(c2ccc(N3CCOCC3)cc2)C=C1 (stereo not drawn)",
    "Sensitivity ΔOD/MIN (Band A)": "0.24 ΔOD/MIN"
  },
  {
    "molecule": "CCC1(OC)c2ccccc2-c2c1c1c(c3cc(OC)c(OC)cc23)OC(c2ccc(OC)cc2)(c2ccc(N3CCOCC3)cc2)C=C1 (stereo not drawn)",
    "Sensitivity ΔOD/MIN (Band A)": "0.21 ΔOD/MIN"
  },
  {
    "molecule": "COc1cc2c(cc1OC)C(C)(C)c1c3c(c4cc(OC)c(OC)cc4c1-2)OC(c1ccccc1)(c1ccc(N2CCOCC2)cc1)C=C3 (stereo not drawn)",
    "Sensitivity ΔOD/MIN (Band A)": "0.32 ΔOD/MIN"
  }
]

Looking up CCC1(O)c2cc(OC)c(OC)cc2-c2c1c1c(c3ccccc23)OC(c2ccc(OC)cc2)(c2ccc(OC)cc2)C=C1 (stereo not drawn) [Comp. Ex. 3, reference compound] , I found its Sensitivity ΔOD/MIN (Band A) recorded as 0.32 ΔOD/MIN

Field Sensitivity ΔOD/MIN (Band A) (entry `CCC1(CC)c2cc(OC)c(OC)cc2-c2c1c1c(c3cc(OC)c(OC)cc23)OC(c2ccc(OC)cc2)(c2ccc(OC)cc2)C=C1` ) reads 0.46 ΔOD/MIN

----------
experiment-notes: lambda max (Vis) of activated photochromic test squares in a Varian Cary 3 uv-visible spectrophotometer
Assay type: physicochemical
measurement-context: Band A; activated form in test square
The entries below come with measured λ MAX Vis (Band A) values attached.
Give a bare numeral; the unit nm is implied.

A selection of reference data follows.
[
  {
    "molecule": "COc1ccc(C2(c3ccc(N4CCOCC4)cc3)C=Cc3c4c(c5cc(OC)c(OC)cc5c3O2)-c2ccccc2C4(C)C)cc1 (stereo not shown) [Example 9]",
    "reported-result": 477
  },
  {
    "molecule": "CCC1(O)c2ccccc2-c2c1c1c(c3cc(OC)c(OC)cc23)OC(c2ccccc2)(c2ccc(N3CCOCC3)cc2)C=C1 (stereo not shown) [Example 14]",
    "reported-result": 485
  },
  {
    "molecule": "COc1ccc(C2(c3ccc(N(C)C)cc3)C=Cc3c4c(c5cc(OC)c(OC)cc5c3O2)-c2ccccc2C4(C)C)cc1 (stereo not shown) [Example 10]",
    "reported-result": 500
  }
]

As a next step, examine the molecule that follows.
response.value for COc1ccc(C2(c3ccc(OC)cc3)C=Cc3c4c(c5c(OC)c(OC)c(OC)cc5c3O2)-c2ccccc2C4c2ccccc2)cc1 (stereo not shown) [Example 11] (field: λ MAX Vis (Band A)) = 482

----------
experiment-notes: photochromic response of test squares on an optical bench (sensitivity, saturation optical density, bleach rate)
Type: physicochemical
measurement-context: measured at band B; room temperature (72° F., 22.2° C.) after removal of activating light
Entries and their Bleach Rate T 1/2
Quick note: unit goes after the number.

CCCCC1(O)c2cc(OC)c(OC)cc2-c2c1c1c(c3cc(OC)c(OC)cc23)OC(c2ccc(OC)cc2)(c2ccc(N3CCOCC3)cc2)C=C1 (stereo not shown) has a reported Bleach Rate T 1/2 of 1.42 min

The compound listed as COc1ccc(C2(c3ccc(N4CCOCC4)cc3)C=Cc3c4c(c5cc(OC)c(OC)cc5c3O2)-c2ccccc2C4(C)OC)cc1 (stereo not shown) shows Bleach Rate T 1/2 equal to 1.75 min

Measured Bleach Rate T 1/2 of CCC1(O)c2cc(OC)c(OC)cc2-c2c1c1c(c3cc(OC)c(OC)cc23)OC(c2ccc(OC)cc2)(c2ccc(N3CCOCC3)cc2)C=C1 (stereo not shown) : 2.17 min

The compound listed as COc1ccc(C2(c3ccc(N4CCOCC4)cc3)C=Cc3c4c(c5cc(OC)c(OC)cc5c3O2)-c2ccccc2C4(C)O)cc1 (stereo not shown) shows Bleach Rate T 1/2 equal to 1.63 min
